assay.notes: chemical genetic growth profiling, strain panel (AID 1159580);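 note: tested at 20 µM; growth read once vehicle control cultures reached saturation at 30 °C; 1 = growth at the plate median or of vehicle wells; lower values mean less growth of the strain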
protocol.conditions: S. cerevisiae deletion strains, growth OD, locus YLR258W, strain gsy2
Among all 5,500 compounds or so, about 2,000 (36%) were called active. Not shown: some 18% with an inconclusive outcome. Cut-off read from the data, not from the text of the source: active = normalized growth mostly below about 0.91 (no sharp cut-off); inconclusive = no clear call, values can overlap the other calls; inactive = mostly above about 0.92. This is one part of the list.
Thanks in advance; please answer with one of these: active, inactive

compound | classification
C=CC(C1=CC(=O)C=CC1=O)c1ccccc1 (stereo unspecified) | inactive
C=CC(C1=CC(=O)C(OC)=CC1=O)c1ccc(OC)cc1 (stereo unspecified) | active
O=C(NC(=O)c1c(F)cccc1F)Nc1ccc(Cl)cc1 | inactive
O[N+]1=CC=CCC1=S.On1ccccc1=S.[Zn] | active
C=C[C@@H](C1=CC(=O)C(OC)=C(OC)C1=O)c1ccccc1 | active

Now examine the next entry.
Data request: Tell me the assay call for C=CC(C1=CC(=O)C(OC)=CC1=O)c1ccc(O)cc1 (stereo unspecified) please.
Data returned: inactive

###

assay.notes: chemical genetic growth profiling, strain panel (AID 1159580);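 note: tested at 20 µM; growth read once vehicle control cultures reached saturation at 30 °C; 1 = growth at the plate median or of vehicle wells; lower values mean less growth of the strain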
protocol.conditions: S. cerevisiae deletion strains, growth OD, locus YDR392W, strain spt3, hits give low values
The whole screen tested about 5,500 compounds, of which about 2,000 (36%) were called active. Inconclusive results (about 18%) are left out. This is one part of the list.
// assign label 1 if normalized growth falls strictly below 0.9, else label 0 (ties count as label 0)

Solved entries:
compound | classification
CC1(C)C(=O)C=C[C@@]2(C)C1=C(O)C(=O)[C@]1(C)C2CC[C@@]2(C)[C@H](c3ccoc3)C[C@H]3O[C@]321 (stereo not given in full) | label 1
O=C(O)c1ccccc1Nc1ccccc1 | label 1
CN1C(CC(=O)c2ccccc2)CCCC1CC(O)c1ccccc1 (stereo not given) | label 0

Now examine the next entry.
Data request: Please let me know if C=C(NC(=O)C(=C)NC(=O)c1csc(C2=NC3c4csc(n4)C4NC(=O)c5csc(n5)C(C(C)(O)C(C)O)NC(=O)C5CSC(=N5)C(=CC)NC(=O)C(C(C)O)NC(=O)c5csc(n5)C3(CC2)NC(=O)C(C)NC(=O)C(=C)NC(=O)C(C)NC(=O)C(C(C)CC)NC2C=Cc3c(C(C)O)cc(nc3C2O)C(=O)OC4C)n1)C(N)=O (stereo not given) shows normalized growth below 0.9.
Data returned: label 0

###

assay.notes: chemical genetic growth profiling, strain panel (AID 1159580);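 note: tested at 20 µM; growth read once vehicle control cultures reached saturation at 30 °C; 1 = growth at the plate median or of vehicle wells; lower values mean less growth of the strain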
protocol.conditions: S. cerevisiae deletion strains, growth OD, locus YLR221C, strain rsa3
Among all 5,500 compounds or so, about 2,000 (36%) were called active. Not shown: some 18% with an inconclusive outcome. No stated cut-off is given here; in the data, active means normalized growth mostly below about 0.91 (no sharp cut-off); inconclusive means no clear call, values can overlap the other calls; inactive means mostly above about 0.92. This is one part of the list.
Thanks in advance; please answer with one of these: 1 = active, -1 = inactive

molecule | classification
COc1c2c(cc3c1OCO3)CCN(C)C2 | -1
COc1cc(OC)c2c(=O)c(-c3ccccc3)c(C)oc2c1OC | -1

Data request: Tell me the assay call for CCC(Cc1c(I)cc(I)c(N)c1I)C(=O)O (centres undefined) please.
Data returned: 1

Data request: Tell me the assay call for C=CCC1(C(C)CCC)C(=O)N=C(S)NC1=O (centres undefined) please.
Data returned: -1

Data request: Tell me the assay call for C=C(C)C1CC=C(CO)CC1 (centres undefined) please.
Data returned: -1

Data request: Tell me the assay call for CCOP(=S)(OCC)SCn1c(=O)oc2cc(Cl)ccc21 please.
Data returned: -1

Data request: Tell me the assay call for CCCC(C)C1(CC)C(=O)NC(=O)NC1=O (centres undefined) please.
Data returned: -1

Data request: Tell me the assay call for CCOC(=O)c1oc2c(OC)c(O)cc(O)c2c(=O)c1-c1cc(OC)c(OC)c(OC)c1 please.
Data returned: -1

Data request: Tell me the assay call for O=C(O)C1=CCNCC1 please.
Data returned: -1
